Sequence of the target: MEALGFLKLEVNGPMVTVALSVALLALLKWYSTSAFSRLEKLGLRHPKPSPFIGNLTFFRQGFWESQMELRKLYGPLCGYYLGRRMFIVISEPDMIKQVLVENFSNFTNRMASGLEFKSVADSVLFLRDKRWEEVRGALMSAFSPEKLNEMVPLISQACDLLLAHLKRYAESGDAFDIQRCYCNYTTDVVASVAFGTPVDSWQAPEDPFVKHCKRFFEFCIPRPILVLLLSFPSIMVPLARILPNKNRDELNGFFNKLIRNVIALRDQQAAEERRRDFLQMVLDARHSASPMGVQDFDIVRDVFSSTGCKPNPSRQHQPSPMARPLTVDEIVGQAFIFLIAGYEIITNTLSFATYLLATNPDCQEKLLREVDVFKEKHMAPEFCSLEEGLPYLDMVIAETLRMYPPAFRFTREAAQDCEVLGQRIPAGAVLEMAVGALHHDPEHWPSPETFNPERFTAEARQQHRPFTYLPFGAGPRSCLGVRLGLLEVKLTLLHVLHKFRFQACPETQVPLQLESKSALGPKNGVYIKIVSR
Measure: IC50

[[record]]
molecule = "Cc1ccc(OC(C)(C)[C@H]2OC[C@@H](C/C=C\\CCC(=O)O)[C@@H](c3cncs3)O2)c([N+](=O)[O-])c1 [Example 2]"
obs_value = "16 nM"


Taken from patent US5219874A.
